Sourced from ChEMBL document CHEMBL1150522

Entries and their MIC
- Tested on: Candida albicans
- Assay Method Text: Minimum inhibitory concentration against Candida albicans (ATCC 10231) in the presence of serum
- Assay type: functional
Outcome Measure: MIC

CCCCC/C=C/C=C/[C@@H](O)C/C=C/C=C/C(=O)O[C@@H]1[C@@H](O)[C@H](c2c(O)cc(O)cc2CO)O[C@H](CO)[C@H]1O[C@@H]1O[C@H](COC(=O)c2ccc(-c3ccc(CC)cc3)cc2)[C@H](O)[C@H](O)[C@H]1O[C@@H]1O[C@H](CO)[C@H](O)[C@H](O)[C@H]1O: 0.78 mg/L
CCCCC/C=C/C=C/[C@@H](O)C/C=C/C=C/C(=O)O[C@@H]1[C@@H](O)[C@H](c2c(O)cc(O)cc2CO)O[C@H](CO)[C@H]1O[C@@H]1O[C@H](COC(=O)c2ccc(CCCC)cc2)[C@H](O)[C@H](O)[C@H]1O[C@@H]1O[C@H](CO)[C@H](O)[C@H](O)[C@H]1O: 3.12 mg/L

* * *

- Tested on: Candida albicans
- Assay Method Text: Minimum inhibitory concentration against Candida albicans (ATCC 10231) in the presence of serum
- Assay type: functional
# MIC values compiled below
Outcome Measure: MIC (µg/mL)

CCCCC/C=C/C=C/[C@@H](O)C/C=C/C=C/C(=O)O[C@@H]1[C@@H](O)[C@H](c2c(O)cc(O)cc2CO)O[C@H](CO)[C@H]1O[C@@H]1O[C@H](COC(=O)c2ccc(-c3ccccc3OC)cc2)[C@H](O)[C@H](O)[C@H]1O[C@@H]1O[C@H](CO)[C@H](O)[C@H](O)[C@H]1O: 6.25
CCCCC/C=C/C=C/[C@@H](O)C/C=C/C=C/C(=O)O[C@@H]1[C@@H](O)[C@H](c2c(O)cc(O)cc2CO)O[C@H](CO)[C@H]1O[C@@H]1O[C@H](COC(=O)c2ccc(Oc3ccccc3)cc2)[C@H](O)[C@H](O)[C@H]1O[C@@H]1O[C@H](CO)[C@H](O)[C@H](O)[C@H]1O: 3.12
CCCCC/C=C/C=C/[C@@H](O)C/C=C/C=C/C(=O)O[C@@H]1[C@@H](O)[C@H](c2c(O)cc(O)cc2CO)O[C@H](CO)[C@H]1O[C@@H]1O[C@H](COC(=O)c2ccc(-c3ccc(OCCC)cc3)cc2)[C@H](O)[C@H](O)[C@H]1O[C@@H]1O[C@H](CO)[C@H](O)[C@H](O)[C@H]1O: 0.78
CCCCC/C=C/C=C/[C@@H](O)C/C=C/C=C/C(=O)O[C@@H]1[C@@H](O)[C@H](c2c(O)cc(O)cc2CO)O[C@H](CO)[C@H]1O[C@@H]1O[C@H](COC(=O)c2ccc(-c3ccc(-c4ccccc4)cc3)cc2)[C@H](O)[C@H](O)[C@H]1O[C@@H]1O[C@H](CO)[C@H](O)[C@H](O)[C@H]1O: 1.56

* * *

- System: Candida albicans
- Assay Method Text: Minimum inhibitory concentration against Candida albicans (579a) in the presence of serum
- Type: functional
Outcome Measure: MIC (µg/mL)

CCCCC/C=C/C=C/[C@@H](O)C/C=C/C=C/C(=O)O[C@@H]1[C@@H](O)[C@H](c2c(O)cc(O)cc2CO)O[C@H](CO)[C@H]1O[C@@H]1O[C@H](COC(=O)c2ccc(-c3ccccc3OC)cc2)[C@H](O)[C@H](O)[C@H]1O[C@@H]1O[C@H](CO)[C@H](O)[C@H](O)[C@H]1O: 1.56
CCCCC/C=C/C=C/[C@@H](O)C/C=C/C=C/C(=O)O[C@@H]1[C@@H](O)[C@H](c2c(O)cc(O)cc2CO)O[C@H](CO)[C@H]1O[C@@H]1O[C@H](COC(=O)c2cc3ccccc3c3ccccc23)[C@H](O)[C@H](O)[C@H]1O[C@@H]1O[C@H](CO)[C@H](O)[C@H](O)[C@H]1O: 3.12
CCCCC/C=C/C=C/[C@@H](O)C/C=C/C=C/C(=O)O[C@@H]1[C@@H](O)[C@H](c2c(O)cc(O)cc2CO)O[C@H](CO)[C@H]1O[C@@H]1O[C@H](COC(=O)c2ccc(CCCC)cc2)[C@H](O)[C@H](O)[C@H]1O[C@@H]1O[C@H](CO)[C@H](O)[C@H](O)[C@H]1O: 0.78
CCCCC/C=C/C=C/[C@@H](O)C/C=C/C=C/C(=O)O[C@@H]1[C@@H](O)[C@H](c2c(O)cc(O)cc2CO)O[C@H](CO)[C@H]1O[C@@H]1O[C@H](COC(=O)c2ccc(-c3ccc(OCCC)cc3)cc2)[C@H](O)[C@H](O)[C@H]1O[C@@H]1O[C@H](CO)[C@H](O)[C@H](O)[C@H]1O: 0.78
CCCCC/C=C/C=C/[C@@H](O)C/C=C/C=C/C(=O)O[C@@H]1[C@@H](O)[C@H](c2c(O)cc(O)cc2CO)O[C@H](CO)[C@H]1O[C@@H]1O[C@H](COC(=O)c2ccc3ccccc3c2)[C@H](O)[C@H](O)[C@H]1O[C@@H]1O[C@H](CO)[C@H](O)[C@H](O)[C@H]1O: 0.78
CCCCC/C=C/C=C/[C@@H](O)C/C=C/C=C/C(=O)O[C@@H]1[C@@H](O)[C@H](c2c(O)cc(O)cc2CO)O[C@H](CO)[C@H]1O[C@@H]1O[C@H](COC(=O)c2ccccc2)[C@H](O)[C@H](O)[C@H]1O[C@@H]1O[C@H](CO)[C@H](O)[C@H](O)[C@H]1O: 6.25
CCCCC/C=C/C=C/[C@@H](O)C/C=C/C=C/C(=O)O[C@@H]1[C@@H](O)[C@H](c2c(O)cc(O)cc2CO)O[C@H](CO)[C@H]1O[C@@H]1O[C@H](COC(=O)/C=C/C=C/CCCCCC)[C@H](O)[C@H](O)[C@H]1O[C@@H]1O[C@H](CO)[C@H](O)[C@H](O)[C@H]1O: 0.78
